molecular target: BRAF^V600E protein (Homo sapiens, UniProt P15056, V600E); experiment: HiBiT cellular BRAF V600E degradation assay; type: cell-based; details: A375.10 cells (HiBiT tag knocked in at N-terminal of BRAF V600E), 24 h incubation; concentration at which 50% of total cellular BRAF V600E is degraded
Sequence (P15056 whole entry V600E): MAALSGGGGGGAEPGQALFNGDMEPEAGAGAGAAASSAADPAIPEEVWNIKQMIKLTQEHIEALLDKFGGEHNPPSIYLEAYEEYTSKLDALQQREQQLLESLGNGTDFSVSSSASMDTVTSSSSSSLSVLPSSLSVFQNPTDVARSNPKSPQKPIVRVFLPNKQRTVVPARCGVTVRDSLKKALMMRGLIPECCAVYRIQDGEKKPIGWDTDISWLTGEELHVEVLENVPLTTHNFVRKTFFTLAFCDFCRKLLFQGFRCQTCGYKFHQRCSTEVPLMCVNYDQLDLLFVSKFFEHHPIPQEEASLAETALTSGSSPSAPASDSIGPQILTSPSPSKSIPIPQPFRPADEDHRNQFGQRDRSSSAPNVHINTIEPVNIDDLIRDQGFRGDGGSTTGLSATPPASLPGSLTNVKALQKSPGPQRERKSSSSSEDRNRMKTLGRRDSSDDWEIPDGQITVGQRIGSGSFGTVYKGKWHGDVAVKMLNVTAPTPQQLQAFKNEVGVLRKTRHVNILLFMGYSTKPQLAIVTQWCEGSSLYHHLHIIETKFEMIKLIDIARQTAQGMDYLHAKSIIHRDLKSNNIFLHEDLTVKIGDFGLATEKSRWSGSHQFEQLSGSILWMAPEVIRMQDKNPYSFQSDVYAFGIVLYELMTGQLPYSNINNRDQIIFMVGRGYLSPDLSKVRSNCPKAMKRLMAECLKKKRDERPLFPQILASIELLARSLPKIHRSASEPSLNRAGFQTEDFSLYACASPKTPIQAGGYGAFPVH
Property measured: DC50 (nM)
# value in nM; strip the unit string

Field: example entries. Status: answers known.
Compound	Property measured	Experimental result
CCN(C)S(=O)(=O)Nc1ccc(F)c(C(=O)c2c[nH]c3ncc(-c4cnc(N5CCC(CC(=O)NC6CCN(c7ccc(NC8CCC(=O)NC8=O)cc7F)CC6)CC5)nc4)cc23)c1F (stereo not shown)	DC50	18.9
CCN(C)S(=O)(=O)Nc1ccc(F)c(C(=O)c2c[nH]c3ncc(-c4ccc(N5CC6(CN(C(=O)CN7CCN(c8ccc(NC9CCC(=O)NC9=O)cc8)CC7)C6)C5)nc4)cc23)c1F (stereo not shown)	DC50	47

Return reported DC50; argument: "CCN(C)S(=O)(=O)Nc1ccc(F)c(C(=O)c2c[nH]c3ncc(-c4cnc(N5CCN(C(=O)CN6CCC(c7ccc(CN8CCC(=O)NC8=O)cc7)CC6)CC5)nc4)cc23)c1F"
35

Return reported DC50; argument: CCN(C)S(=O)(=O)Nc1ccc(F)c(C(=O)c2c[nH]c3ncc(-c4ccc(N5CCN(C(=O)CN6CCC(c7ccc(C8CCC(=O)NC8=O)cc7)CC6)CC5)nc4)cc23)c1F (stereo not shown)
7.65

Return reported DC50; argument: CCN(C)S(=O)(=O)Nc1ccc(F)c(C(=O)c2c[nH]c3ncc(-c4ccc(CN5CCN(C(=O)CN6CCC(c7ccc(OC8CCC(=O)NC8=O)cc7)CC6)CC5)cc4)cc23)c1F (stereo not shown)
77

Return reported DC50; argument: "CCN(C)S(=O)(=O)Nc1ccc(F)c(C(=O)c2c[nH]c3ncc(-c4cnc(N5CCN(C(=O)CC6(O)CCN(c7ccc(N8CCC(=O)NC8=O)cc7F)CC6)CC5)nc4)cc23)c1F"
7.05

Return reported DC50; argument: CCN(C)S(=O)(=O)Nc1ccc(F)c(C(=O)c2c[nH]c3ncc(-c4ccc(N5CCN(C(=O)CC6(O)CCN(c7ccc(NC8CCC(=O)NC8=O)cn7)CC6)CC5)cc4)cc23)c1F (stereo not shown)
15.7

Return reported DC50; argument: O=C1CCC(Nc2ccc(N3CCC(O)(CC(=O)N4CCN(c5ccc(-c6cnc7[nH]cc(C(=O)c8c(F)ccc(NS(=O)(=O)N9CC[C@@H](F)C9)c8F)c7c6)cn5)CC4)CC3)c(F)c2)C(=O)N1 (stereo partly shown)
2.72

Return reported DC50; argument: CCN(C)S(=O)(=O)Nc1ccc(F)c(C(=O)c2c[nH]c3ncc(-c4ccn(C5CCN(C(=O)CC6(O)CCN(c7ccc(NC8CCC(=O)NC8=O)cc7F)CC6)CC5)c(=O)c4)cc23)c1F (stereo not shown)
11.5

Return reported DC50; argument: CCCS(=O)(=O)Nc1ccc(F)c(C(=O)c2c[nH]c3ncc(-c4cnc(N5CCN(C(=O)CN6CCC(c7ccc(OC8CCC(=O)NC8=O)cc7)CC6)CC5)nc4)cc23)c1F (stereo not shown)
12.2

###

target: BRAF^V600E protein (Homo sapiens, UniProt P15056, V600E); experiment: HiBiT cellular BRAF V600E degradation assay; assay type: cell-based; settings: A375.10 cells (HiBiT tag knocked in at N-terminal of BRAF V600E), 24 h incubation; concentration at which 50% of total cellular BRAF V600E is degraded
DC50 vs 20 nM: less than gives y; not less than gives n.

For orientation, consider the following solved cases.
Molecule	Class assignment
CCN(C)S(=O)(=O)Nc1ccc(F)c(C(=O)c2c[nH]c3ncc(C#CC4CCN(C(=O)CN5CCC(c6ccc(NC7CCC(=O)NC7=O)cc6)CC5)CC4)cc23)c1F (stereo not shown) [Example A43]	n
CCN(C)S(=O)(=O)Nc1ccc(F)c(C(=O)c2c[nH]c3ncc(-c4ccc(N5CCN(C(=O)CN6CCC(N7CCN(C8CCC(=O)NC8=O)C(=O)C7)C(F)(F)C6)CC5)cc4)cc23)c1F (stereo not shown) [Example 172]	y
O=C1CCC(Nc2ccc(C3CCN(CC(=O)N4CCN(c5ccc(-c6cnc7[nH]cc(C(=O)c8c(F)ccc(NS(=O)(=O)C9CCCCC9)c8F)c7c6)cn5)CC4)CC3)cc2)C(=O)N1 (stereo not shown) [Example A33]	n
CCN(C)S(=O)(=O)Nc1ccc(F)c(C(=O)c2c[nH]c3ncc(-c4ccc(N5CCN(C(=O)CC6(O)CCN(c7ccc(N8CCC(=O)NC8=O)cc7F)CC6)CC5)cc4)cc23)c1F [Example 169]	y
CCN(C)S(=O)(=O)Nc1cccc(C(=O)c2c[nH]c3ncc(-c4cnc(N5CCN(C(=O)CC6(O)CCN(c7ccc(N8CCC(=O)NC8=O)cc7F)CC6)CC5)nc4)cc23)c1F [Example 165]	y

Decide: DC50 of CCN(C)S(=O)(=O)Nc1ccc(F)c(C(=O)c2c[nH]c3ncc(-c4ccc(CN5CCN(CC(=O)N6CCC(c7ccc(NC8CCC(=O)NC8=O)cc7)CC6)CC5)nc4)cc23)c1F (stereo not shown) [Example A7] strictly below 20 nM?
y

Decide: DC50 of CCN(C)S(=O)(=O)Nc1ccc(F)c(C(=O)c2c[nH]c3ncc(-c4ccc(N5CCN(C(=O)CC6(O)CCN(c7ccc(NC8CCC(=O)NC8=O)cc7F)CC6)CC5)cc4)cc23)c1Cl (stereo not shown) [Example 155] strictly below 20 nM?
y

Decide: DC50 of CCN(C)S(=O)(=O)Nc1ccc(F)c(C(=O)c2c[nH]c3ncc(-c4ccc(N5CCN(C(=O)CN6CCC(n7cc(NC8CCC(=O)NC8=O)cn7)CC6)CC5)cc4)cc23)c1F (stereo not shown) [Example A80] strictly below 20 nM?
n

Decide: DC50 of CCN(C)S(=O)(=O)Nc1cccc(C(=O)c2c[nH]c3ncc(-c4ccc(N5CCN(C(=O)CC6(O)CCN(c7ccc(NC8CCC(=O)NC8=O)cc7)CC6)CC5)nc4)cc23)c1F (stereo not shown) [Example 109] strictly below 20 nM?
y

###

Reported Emax values for the following molecules.
molecular target: BRAF^V600E protein (Homo sapiens, UniProt P15056, V600E); assay: HiBiT cellular BRAF V600E degradation assay; assay type: cell-based; settings: A375.10 cells, 24 h incubation; Emax = amount of residual protein remaining in the cell after compound treatment; read-out: HiBit 24 h Emax
Number first, unit second.

Molecule	Assayed system	Property measured	Experimental result
CCN(C)S(=O)(=O)Nc1ccc(F)c(C(=O)c2c[nH]c3ncc(-c4ccc(N5CCN(C(=O)CC6(O)CCN(c7ncc(NC8CCC(=O)NC8=O)cc7F)CC6)CC5)nc4)cc23)c1F (stereo not drawn)	BRAF^V600E protein (Homo sapiens, UniProt P15056, V600E)	Emax	9.93%
CCN(C)S(=O)(=O)Nc1ccc(F)c(C(=O)c2c[nH]c3ncc(-c4cnc(N5CCc6c(CN7CCC(c8ccc(NC9CCC(=O)NC9=O)cc8)CC7)cccc6C5)nc4)cc23)c1F (stereo not drawn)	BRAF^V600E protein (Homo sapiens, UniProt P15056, V600E)	Emax	13.3%

Below: the item to evaluate.
Return reported Emax; argument: CCN(C)S(=O)(=O)Nc1ccc(F)c(C(=O)c2c[nH]c3ncc(-c4cnc(N5CCN(C(=O)CC6CCN(c7ccc(NC8CCC(=O)NC8=O)cc7F)CC6)CC5)nc4)cc23)c1F (stereo not drawn)
11.5%

###

target: BRAF^V600E protein (Homo sapiens, UniProt P15056, V600E); assay: HiBiT cellular BRAF V600E degradation assay; type: cell-based; details: A375.10 cells, 24 h incubation; Emax = amount of residual protein remaining in the cell after compound treatment; read-out: HiBit 24 h Emax
Property measured: Emax (%)
# value in %; strip the unit string

Field: example entries. Status: answers known.
Compound	Unit abbreviation	Emax
CCN(C)S(=O)(=O)Nc1ccc(F)c(C(=O)c2c[nH]c3ncc(-c4ccc(N5CCN(C(=O)CC6(O)CCN(c7ccc(NC8CCC(=O)NC8=O)cc7C(F)F)CC6)CC5)nc4)cc23)c1F (centres unmarked)	%	8.11
CCN(C)S(=O)(=O)Nc1ccc(F)c(C(=O)c2c[nH]c3ncc(-c4ccc(N5CCN(C(=O)CCCN6CCC(c7ccc(OC8CCC(=O)NC8=O)cc7)CC6)CC5)cc4)cc23)c1F (centres unmarked)	%	14
CCN(C)S(=O)(=O)Nc1ccc(F)c(C(=O)c2c[nH]c3ncc(-c4cnc(N5CCN(C(=O)CN6CCC(c7c(F)cc(NC8CCC(=O)NC8=O)cc7F)CC6)CC5)nc4)cc23)c1F (centres unmarked)	%	7.88

Hi! What's the reported Emax for CCN(C)S(=O)(=O)Nc1ccc(F)c(C(=O)c2c[nH]c3ncc(-c4cnc(N5CCN(C(=O)CC6(O)CCN(c7ncc(NC8CCC(=O)NC8=O)cc7F)CC6)CC5)nc4)cc23)c1F (centres unmarked) on BRAF^V600E protein (Homo sapiens, UniProt P15056, V600E)?
9.42

Hi! What's the reported Emax for CCN(C)S(=O)(=O)Nc1ccc(F)c(C(=O)c2c[nH]c3ncc(-c4cnc(N5CCC(OCC6CCN(c7ccc(NC8CCC(=O)NC8=O)cc7F)CC6)CC5)nc4)cc23)c1F (centres unmarked) on BRAF^V600E protein (Homo sapiens, UniProt P15056, V600E)?
7.7

Hi! What's the reported Emax for CCN(C)S(=O)(=O)Nc1ccc(F)c(C(=O)c2c[nH]c3ncc(-c4ccc(N5CCN(C(=O)CCCN6CCC(c7ccc(NC8CCC(=O)NC8=O)cc7)CC6)CC5)nc4)cc23)c1F (centres unmarked) on BRAF^V600E protein (Homo sapiens, UniProt P15056, V600E)?
14

Hi! What's the reported Emax for CCN(C)S(=O)(=O)Nc1ccc(F)c(C(=O)c2c[nH]c3ncc(-c4cnc(N5CCN(C(=O)CC6(O)CCN(c7ccc(NC8CCC(=O)NC8=O)cc7F)CC6)CC5)cn4)cc23)c1F (centres unmarked) on BRAF^V600E protein (Homo sapiens, UniProt P15056, V600E)?
7.8

Hi! What's the reported Emax for CCN(C)S(=O)(=O)Nc1ccc(F)c(C(=O)c2c[nH]c3ncc(-c4cnc(C5CCN(C(=O)CN6CCC(c7ccc(NC8CCC(=O)NC8=O)cc7)CC6)CC5)nc4)cc23)c1F (centres unmarked) on BRAF^V600E protein (Homo sapiens, UniProt P15056, V600E)?
10.8
